Where these numbers come from: ChEMBL document CHEMBL3804786

Test: Antioxidant activity of the compound after 30 mins by FRAP assay
Format: physicochemical
Reported Property: pEC50
Please note pEC50 is a logarithmic value: minus log10 of concentration in mol/L. Answer with that number alone.

QUERY: Returns the measured pEC50 for the input compound. Input: C/C(=N\N=C1/SCC(=O)N1Cc1cccc(Cl)c1)c1cccs1
RESULT: 2.63

* * *

Measured MIC, listed per entry.
Test system: Pichia kudriavzevii
Test: Antifungal activity against Candida krusei clinical isolate after 24 hrs by broth microdilution method
Type: functional
Just the number please, in µg/mL, no unit attached.

Some solved entries appear below for comparison.
O=C1CS/C(=N\N=C2CCCC2)N1Cc1ccc(F)cc1: 8
C/C(=N/N=C1\SCC(=O)N1Cc1ccccc1[N+](=O)[O-])c1cccs1: 2
C/C(=N/N=C1\SCC(=O)N1Cc1ccc(N)cc1)c1ccccn1: 8
C/C(=N/N=C1\SCC(=O)N1Cc1ccc(Cl)cc1)c1cccs1: 8

We now examine a further compound.
QUERY: Fill in the recorded MIC for this compound, with Pichia kudriavzevii as test system: Clc1ccc(COC(Cn2ccnc2)c2ccc(Cl)cc2Cl)c(Cl)c1 (stereo not given) [MICONAZOLE]
RESULT: 4

* * *

Test system: [Candida] sake
Test: Antifungal activity against Candida sake clinical isolate after 24 hrs by broth microdilution method
Format: functional
Protocol Conditions: Fermentozyma sake
Reported Property: MIC (µg/mL)
Give your result in µg/mL as a bare value.

C[C@@H]1[C@H](O)[C@@H](C)/C=C/C=C/C=C/C=C/C=C/C=C/C=C/[C@H](O[C@@H]2O[C@H](C)[C@@H](O)[C@H](N)[C@@H]2O)C[C@@H]2O[C@](O)(C[C@@H](O)C[C@@H](O)[C@H](O)CC[C@@H](O)C[C@@H](O)CC(=O)O[C@H]1C)C[C@H](O)[C@H]2C(=O)O: 2
CC(C)=N/N=C1\SCC(=O)N1Cc1ccccc1F: 8
C/C(=N\N=C1/SCC(=O)N1Cc1cccc(F)c1)c1cccs1: 2

QUERY: Requested read-out: MIC. Entry: C/C(=N\N=C1/SCC(=O)N1Cc1ccccc1F)c1ccccn1
RESULT: 8

QUERY: Next entry: C/C(=N\N=C1/SCC(=O)N1Cc1ccccc1Cl)c1cccs1
RESULT: 8

QUERY: Same question for C/C(=N\N=C1/SCC(=O)N1Cc1cccc(Cl)c1)c1cccs1 please.
RESULT: 2

QUERY: Subsequent entry: O=C1CS/C(=N\N=C2CCCC2)N1Cc1ccc(F)cc1
RESULT: 8

QUERY: // repeat for OC(Cn1cncn1)(Cn1cncn1)c1ccc(F)cc1F and report
RESULT: 2

* * *

Tested on: [Candida] sake
Test: Antifungal activity against Candida sake clinical isolate after 24 hrs by broth microdilution method
Type: functional
Protocol Conditions: Fermentozyma sake
# maps each entry to its MIC
Quick reminder: number only, in µg/mL, skip the unit.

CC(C)=N/N=C1\SCC(=O)N1Cc1ccccc1[N+](=O)[O-]: 4
C/C(=N/N=C1\SCC(=O)N1Cc1ccc(F)cc1)c1cccs1: 8
CC(C)=N/N=C1\SCC(=O)N1Cc1ccc(N)cc1: 4

QUERY: Which measured MIC belongs to O=C1CS/C(=N\N=C2CCCC2)N1Cc1ccccc1Cl , tested on [Candida] sake?
RESULT: 2

QUERY: Same for C/C(=N\N=C1/SCC(=O)N1Cc1cccc(Cl)c1)c1ccccn1
RESULT: 16

QUERY: Cool, now C/C(=N/N=C1\SCC(=O)N1Cc1ccc(Cl)cc1)c1cccs1
RESULT: 8

QUERY: Another molecule: CC(=O)N1CCN(c2ccc(OCC3COC(Cn4ccnc4)(c4ccc(Cl)cc4Cl)O3)cc2)CC1 (stereo unspecified) [KETOCONAZOLE]
RESULT: 4

QUERY: Could you do the same for O=C1CS/C(=N\N=C2CCCC2)N1Cc1ccccc1F , please?
RESULT: 2

QUERY: And what about the molecule C/C(=N/N=C1\SCC(=O)N1Cc1ccc(F)cc1)c1ccccn1 ?
RESULT: 2

QUERY: Try C/C(=N\N=C1/SCC(=O)N1Cc1cccc([N+](=O)[O-])c1)c1ccccn1 next.
RESULT: 4

QUERY: Similarly, C/C(=N\N=C1/SCC(=O)N1Cc1cccc(F)c1)c1ccccn1 ?
RESULT: 4

* * *

Test: Metal chelating activity of the compound assessed as ferrous ion complex formation after 10 mins
Assay type: physicochemical
Reported Property: pIC50
The scale used: pIC50 is minus the common logarithm of the concentration in molar units.

Would you please look over these solved cases?
C/C(=N\N=C1/SCC(=O)N1Cc1ccccc1F)c1cccs1: 2.42
C/C(=N\N=C1/SCC(=O)N1Cc1cccc(Cl)c1)c1cccs1: 2.79
O=C(O)CN(CCN(CC(=O)O)CC(=O)O)CC(=O)O: 4.70

QUERY: Form field: reported pIC50 of C/C(=N\N=C1/SCC(=O)N1Cc1cccc(Cl)c1)c1ccccn1
RESULT: 2.56

QUERY: // next record C/C(=N\N=C1/SCC(=O)N1Cc1cccc(F)c1)c1cccs1
RESULT: 2.33

QUERY: Thanks! And C/C(=N/N=C1\SCC(=O)N1Cc1ccc(F)cc1)c1cccs1 ?
RESULT: 2.41

QUERY: Try the molecule C/C(=N/N=C1\SCC(=O)N1Cc1ccc(F)cc1)c1ccccn1
RESULT: 2.44

* * *

Test: Cytotoxicity against human Hep2 cells assessed as reduction in cell viability after 24 hrs by trypan blue exclusion assay
Assay type: cell-based, HEp-2
Known CC50 at 24 h of a selection of compounds
I only need the number, in µg/mL, no unit after it.

A selection of reference data follows.
Clc1ccccc1C(c1ccccc1)(c1ccccc1)n1ccnc1: 18
C/C(=N/N=C1\SCC(=O)N1Cc1ccc(F)cc1)c1cccs1: 15
C/C(=N\N=C1/SCC(=O)N1Cc1cccc(Cl)c1)c1cccs1: 21
CC(C)=N/N=C1\SCC(=O)N1Cc1cccc([N+](=O)[O-])c1: 5
O=C1CS/C(=N\N=C2CCCC2)N1Cc1ccc(Cl)cc1: 16

QUERY: Please look up its CC50 at 24 h: C/C(=N/N=C1\SCC(=O)N1Cc1ccccc1[N+](=O)[O-])c1cccs1
RESULT: 20

QUERY: Moving on to C/C(=N/N=C1\SCC(=O)N1Cc1ccc(F)cc1)c1ccccn1
RESULT: 16

QUERY: Queued: C/C(=N\N=C1/SCC(=O)N1Cc1cccc(F)c1)c1cccs1
RESULT: 6

QUERY: Proceed to O=C1CS/C(=N\N=C2CCCC2)N1Cc1ccccc1F
RESULT: 11

QUERY: Note, next up: C/C(=N\N=C1/SCC(=O)N1Cc1cccc(Cl)c1)c1ccccn1
RESULT: 21

QUERY: Query C/C(=N\N=C1/SCC(=O)N1Cc1ccccc1F)c1cccs1 next
RESULT: 15

* * *

System: Pichia kudriavzevii
Test: Antifungal activity against Candida krusei clinical isolate after 24 hrs by broth microdilution method
Assay type: functional
Reported Property: MIC (µg/mL)
Write the number in µg/mL without appending the unit.

CC(C)=N/N=C1\SCC(=O)N1Cc1ccccc1Cl: 8
Nc1ccc(CN2C(=O)CS/C2=N\N=C2CCCC2)cc1: 16
C/C(=N\N=C1/SCC(=O)N1Cc1ccccc1Cl)c1cccs1: 8
C/C(=N\N=C1/SCC(=O)N1Cc1cccc([N+](=O)[O-])c1)c1ccccn1: 8

QUERY: Any idea what MIC came out for C/C(=N\N=C1/SCC(=O)N1Cc1cccc(F)c1)c1ccccn1 on Pichia kudriavzevii?
RESULT: 8

QUERY: Again, but for O=C1CS/C(=N\N=C2CCCC2)N1Cc1cccc(F)c1
RESULT: 2

* * *

Test: Antioxidant activity assessed as ABTS radical scavenging activity after 30 mins under dark conditions
Format: physicochemical
pIC50: −log10 of the molar value.
YES means recorded pIC50 is 2 or above; NO means it is below 2.

A selection of reference data follows.
C/C(=N\N=C1/SCC(=O)N1Cc1cccc(Cl)c1)c1ccccn1: NO
CC(C)=N/N=C1\SCC(=O)N1Cc1ccc(N)cc1: YES
Cc1c(C)c2c(c(C)c1O)CCC(C)(C(=O)O)O2 (configuration not stated): YES
CC(C)=N/N=C1\SCC(=O)N1Cc1cccc([N+](=O)[O-])c1: NO
C/C(=N\N=C1/SCC(=O)N1Cc1cccc(Cl)c1)c1cccs1: NO

QUERY: Could you verify whether the entry C/C(=N\N=C1/SCC(=O)N1Cc1cccc(F)c1)c1cccs1 shows pIC50 of no less than 2?
RESULT: NO

QUERY: Quick one: O=C1CS/C(=N\N=C2CCCC2)N1Cc1ccc(Cl)cc1
RESULT: NO

QUERY: Entry to check: C/C(=N\N=C1/SCC(=O)N1Cc1ccccc1F)c1cccs1
RESULT: NO

QUERY: Queued: C/C(=N/N=C1\SCC(=O)N1Cc1ccc(F)cc1)c1cccs1
RESULT: NO

QUERY: // repeat for O=C1CS/C(=N\N=C2CCCC2)N1Cc1ccccc1F and report
RESULT: NO

QUERY: Continue with C/C(=N/N=C1\SCC(=O)N1Cc1ccccc1[N+](=O)[O-])c1cccs1
RESULT: NO

QUERY: C/C(=N/N=C1\SCC(=O)N1Cc1ccc(F)cc1)c1ccccn1 , same question.
RESULT: NO
